// data source = ChEMBL document CHEMBL3739386

system under test: CYP2D6 (Homo sapiens, UniProt P10635)
Sequence (P10635 whole entry): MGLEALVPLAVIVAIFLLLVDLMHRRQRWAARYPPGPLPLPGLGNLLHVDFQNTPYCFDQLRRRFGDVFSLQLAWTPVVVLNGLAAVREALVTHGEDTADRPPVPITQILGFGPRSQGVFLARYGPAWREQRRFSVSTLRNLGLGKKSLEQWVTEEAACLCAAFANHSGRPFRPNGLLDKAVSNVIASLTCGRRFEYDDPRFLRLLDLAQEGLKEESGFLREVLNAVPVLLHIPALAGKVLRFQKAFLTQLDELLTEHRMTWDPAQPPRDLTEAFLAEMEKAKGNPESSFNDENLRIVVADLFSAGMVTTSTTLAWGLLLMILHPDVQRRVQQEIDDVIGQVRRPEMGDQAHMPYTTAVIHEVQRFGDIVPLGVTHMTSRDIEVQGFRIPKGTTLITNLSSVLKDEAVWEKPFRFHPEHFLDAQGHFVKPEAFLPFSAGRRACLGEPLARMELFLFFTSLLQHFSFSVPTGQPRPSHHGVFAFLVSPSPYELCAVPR
run description: Inhibition of human CYP2D6 assessed as remaining activity at 10 uM
Assay type: ADME
experimental context: read-out: Activity
measurement label: activity at 10 µM (%)

Cc1cccc(NC(=O)c2nc(Br)cs2)n1 :: 99.2
O=C(Nc1cccc(Br)c1)c1nc(Br)cs1 :: 102

----------
system under test: hERG (KCNH2) (Homo sapiens)
Sequence (Q12809 whole entry): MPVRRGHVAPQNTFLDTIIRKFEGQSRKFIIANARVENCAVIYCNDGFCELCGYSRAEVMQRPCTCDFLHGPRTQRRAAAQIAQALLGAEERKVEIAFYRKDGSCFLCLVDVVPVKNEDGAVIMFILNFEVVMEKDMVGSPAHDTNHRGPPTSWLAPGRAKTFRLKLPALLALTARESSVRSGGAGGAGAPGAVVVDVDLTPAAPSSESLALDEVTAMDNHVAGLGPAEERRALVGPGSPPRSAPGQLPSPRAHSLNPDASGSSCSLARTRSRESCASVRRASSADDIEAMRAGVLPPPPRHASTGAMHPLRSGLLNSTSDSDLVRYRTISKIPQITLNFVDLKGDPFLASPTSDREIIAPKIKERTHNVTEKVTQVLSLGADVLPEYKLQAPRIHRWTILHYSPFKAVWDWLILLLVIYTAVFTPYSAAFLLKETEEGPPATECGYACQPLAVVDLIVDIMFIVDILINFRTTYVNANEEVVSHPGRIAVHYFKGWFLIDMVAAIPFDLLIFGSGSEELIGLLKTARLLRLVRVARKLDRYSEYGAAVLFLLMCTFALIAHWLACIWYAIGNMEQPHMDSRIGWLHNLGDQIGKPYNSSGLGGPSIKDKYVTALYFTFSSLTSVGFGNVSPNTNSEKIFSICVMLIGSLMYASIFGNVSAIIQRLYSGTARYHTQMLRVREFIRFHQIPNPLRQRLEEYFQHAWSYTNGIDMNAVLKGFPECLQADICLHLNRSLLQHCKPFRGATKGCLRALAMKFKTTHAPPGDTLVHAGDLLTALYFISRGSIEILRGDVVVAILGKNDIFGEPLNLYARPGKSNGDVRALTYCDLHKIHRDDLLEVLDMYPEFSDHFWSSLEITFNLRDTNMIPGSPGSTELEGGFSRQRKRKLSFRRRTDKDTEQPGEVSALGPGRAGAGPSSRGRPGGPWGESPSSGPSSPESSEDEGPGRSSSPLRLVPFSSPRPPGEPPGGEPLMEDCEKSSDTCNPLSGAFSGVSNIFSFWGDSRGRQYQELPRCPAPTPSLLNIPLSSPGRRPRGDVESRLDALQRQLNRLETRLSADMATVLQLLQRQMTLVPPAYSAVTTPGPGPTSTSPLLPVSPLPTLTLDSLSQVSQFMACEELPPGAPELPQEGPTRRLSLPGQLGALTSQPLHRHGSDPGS
run description: Inhibition of human ERG at 10 uM by patch-clamp method
Quick reference for inhibition at 10 µM among some compounds
Write the answer as a number in %, unit excluded.

Cc1cccc(NC(=O)c2nc(Br)cs2)n1 :: 34.8

Query block: What does the data say about its inhibition at 10 µM? Entry: O=C(Nc1cccc(Br)c1)c1nc(Br)cs1
Result block: 39.6

----------
system under test: CYP2C19 (Homo sapiens, UniProt P33261)
Sequence (P33261 whole entry): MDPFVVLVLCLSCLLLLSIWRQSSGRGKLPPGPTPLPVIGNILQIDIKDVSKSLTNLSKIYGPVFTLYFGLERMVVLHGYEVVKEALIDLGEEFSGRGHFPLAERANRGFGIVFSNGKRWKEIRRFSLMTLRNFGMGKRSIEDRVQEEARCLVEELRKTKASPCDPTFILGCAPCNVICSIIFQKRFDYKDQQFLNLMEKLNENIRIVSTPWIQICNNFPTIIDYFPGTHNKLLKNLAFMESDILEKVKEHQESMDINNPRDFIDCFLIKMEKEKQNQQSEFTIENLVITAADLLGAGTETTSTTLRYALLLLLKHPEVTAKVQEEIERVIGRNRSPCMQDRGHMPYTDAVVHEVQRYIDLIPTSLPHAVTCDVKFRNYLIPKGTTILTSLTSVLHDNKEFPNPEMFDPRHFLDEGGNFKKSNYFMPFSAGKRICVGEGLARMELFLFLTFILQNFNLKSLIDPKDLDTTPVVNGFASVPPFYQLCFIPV
run description: Inhibition of human CYP2C19 assessed as remaining activity at 10 uM
Assay type: ADME
experimental context: read-out: Activity
measurement label: activity at 10 µM (%)

P = Cc1cccc(NC(=O)c2nc(Br)cs2)n1
Q = O=C(Nc1cccc(Br)c1)c1nc(Br)cs1
Query block: Response body: label of entry with the larger activity at 10 µM; valid values P , Q . Please identify the chosen entry by its label.
Result block: Q

----------
Quick reference for inhibition at 0.1 µM among some molecules
system under test: UniProt:Q12809
run description: Inhibition of human ERG at 0.1 uM by patch-clamp method
Write the answer as a number in %, unit excluded.

O=C(Nc1cccc(Br)c1)c1nc(Br)cs1 :: 16.3

Query block: What does the data say about its inhibition at 0.1 µM? Entry: Cc1cccc(NC(=O)c2nc(Br)cs2)n1
Result block: 15

----------
system under test: Metabotropic glutamate receptor 5 (Homo sapiens)
run description: Antagonist activity at mGlu5 receptor (unknown origin) expressed in HEK cells assessed as inhibition of glutamate-induced calcium flux at 10 uM by fluorescence based assay
Type: functional, cell-based
experimental context: HEK293
measurement label: inhibition (%)

# count of solved cases: 5
O=C(Nc1cccnc1)c1cccc(Cl)n1 :: 33.4
COc1ccc(NC(=O)c2cccc(Cl)n2)cn1 :: 43.4
COc1ccc(NC(=O)c2ccccn2)cn1 :: 25.5
O=C(Nc1ccc(Cl)nc1Cl)c1ccccn1 :: 35.4
O=C(Nc1cccc(Cl)c1)c1cccc(F)n1 :: 33.4

A = O=C(Nc1cccnc1)c1ccccn1
B = O=C(Nc1ccccn1)c1ccccn1
Query block: Select the item whose inhibition value is smaller, choosing between A and B . Please identify the chosen entry by its label.
Result block: A
(A: 30.3%, B: 65.5%)

1 = COc1cccc(C(=O)Nc2cccnc2)n1
2 = Cc1cccc(C(=O)Nc2cccc(Cl)c2)n1
3 = N#Cc1cccc(NC(=O)c2cccc(F)n2)c1
Query block: Arrange the 3 compounds by rising inhibition, starting with the smallest. Quick reminder: the answer is the labels in the order asked.
Result block: 1, 3, 2
(1: 23.1%, 3: 34%, 2: 52.1%)

----------
run description: Metabolic stability in human liver microsomes assessed as compound remaining at 1 uM after 30 mins
Assay type: ADME
experimental context: read-out: Stability
measurement label: remaining at 0.5 h, 1 µM (%)

P = Cc1cccc(NC(=O)c2nc(Br)cs2)n1
Q = O=C(Nc1cccc(Br)c1)c1nc(Br)cs1
Query block: Select the item whose remaining at 0.5 h, 1 µM value is smaller, choosing between P and Q . Please identify the chosen entry by its label.
Result block: P
(P: 7.25%, Q: 37.3%)

----------
system under test: Metabotropic glutamate receptor 5 (Homo sapiens, UniProt P41594)
Sequence (P41594 21-1212 limits assumed): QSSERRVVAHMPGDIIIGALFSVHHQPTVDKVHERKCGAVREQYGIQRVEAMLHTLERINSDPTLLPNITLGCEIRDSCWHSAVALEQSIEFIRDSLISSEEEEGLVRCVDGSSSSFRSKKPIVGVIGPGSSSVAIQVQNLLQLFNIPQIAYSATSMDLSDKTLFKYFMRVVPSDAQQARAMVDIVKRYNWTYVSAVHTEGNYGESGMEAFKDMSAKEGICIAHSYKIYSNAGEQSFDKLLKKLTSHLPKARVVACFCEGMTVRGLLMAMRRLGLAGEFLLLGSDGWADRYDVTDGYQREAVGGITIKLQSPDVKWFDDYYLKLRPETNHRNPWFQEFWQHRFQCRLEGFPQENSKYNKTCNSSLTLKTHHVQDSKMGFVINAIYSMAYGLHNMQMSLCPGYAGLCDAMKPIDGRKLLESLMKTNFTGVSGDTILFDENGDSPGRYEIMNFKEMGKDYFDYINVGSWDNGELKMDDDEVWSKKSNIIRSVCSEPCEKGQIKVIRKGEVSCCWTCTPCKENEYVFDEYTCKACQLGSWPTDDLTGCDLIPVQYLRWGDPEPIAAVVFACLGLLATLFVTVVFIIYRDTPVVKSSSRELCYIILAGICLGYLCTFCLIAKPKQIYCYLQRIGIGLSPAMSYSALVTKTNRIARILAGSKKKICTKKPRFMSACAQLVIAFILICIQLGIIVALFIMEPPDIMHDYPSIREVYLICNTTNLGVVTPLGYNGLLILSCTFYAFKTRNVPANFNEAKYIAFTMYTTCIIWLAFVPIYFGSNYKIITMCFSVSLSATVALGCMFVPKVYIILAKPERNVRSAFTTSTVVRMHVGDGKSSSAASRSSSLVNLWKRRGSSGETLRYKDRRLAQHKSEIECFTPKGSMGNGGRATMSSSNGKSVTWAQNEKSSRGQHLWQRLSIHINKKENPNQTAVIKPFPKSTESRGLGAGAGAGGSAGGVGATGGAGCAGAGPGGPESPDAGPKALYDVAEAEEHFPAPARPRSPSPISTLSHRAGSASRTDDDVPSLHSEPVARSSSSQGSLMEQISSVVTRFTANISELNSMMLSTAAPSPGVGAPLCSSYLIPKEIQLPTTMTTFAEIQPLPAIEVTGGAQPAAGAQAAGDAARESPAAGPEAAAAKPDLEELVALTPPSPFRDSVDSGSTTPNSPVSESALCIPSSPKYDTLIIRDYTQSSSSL
run description: Antagonist activity at mGlu5 receptor (unknown origin) expressed in HEK cells assessed as inhibition of glutamate-induced calcium flux at 1 uM by fluorescence based assay
Type: functional, cell-based
experimental context: HEK293
measurement label: inhibition (%)

# count of solved cases: 4
O=C(Nc1cccc(Br)n1)c1nc(Br)cs1 :: 19.8
N#Cc1cccc(NC(=O)c2nc(C#N)cs2)n1 :: 8.3
Cc1cccc(C(=O)Nc2cccc(Cl)c2)n1 :: 10.5
O=C(Nc1ccc(Cl)nc1Cl)c1ccccn1 :: 3.85

P = Cc1csc(C(=O)Nc2cccc(F)c2)n1
Q = O=C(Nc1cccc(Cl)c1)c1cccc(F)n1
R = Cc1csc(C(=O)Nc2ccccn2)n1
Query block: Arrange the 3 compounds by rising inhibition, starting with the smallest. Quick reminder: the answer is the labels in the order asked.
Result block: P, Q, R

1 = COc1ccc(NC(=O)c2cccc(Cl)n2)cn1
2 = Cc1cccc(NC(=O)c2nc(Br)cs2)n1
3 = Cc1csc(C(=O)Nc2cccc(Cl)c2)n1
Query block: Sequence the entries by inhibition, beginning with the highest number. Quick reminder: the answer is the labels in the order asked.
Result block: 2, 3, 1
(2: 81%, 3: 32.2%, 1: 18.5%)

1 = Cc1ccnc(Cl)c1NC(=O)c1ccccn1
2 = O=C(Nc1cccc(Br)c1)c1nc(Br)cs1
3 = O=C(Nc1cccnc1)c1ccccn1
Query block: Sequence the entries by inhibition, beginning with the highest number. Quick reminder: the answer is the labels in the order asked.
Result block: 2, 3, 1
(2: 71.1%, 3: 25.6%, 1: 16.1%)

A = Cc1cccc(NC(=O)c2nc(C)cs2)c1
B = O=C(Nc1cccc(F)n1)c1nc(Br)cs1
C = Cc1csc(C(=O)Nc2cccc(C#N)c2)n1
Query block: Arrange the 3 compounds by rising inhibition, starting with the smallest. Quick reminder: the answer is the labels in the order asked.
Result block: A, C, B
(A: 11.6%, C: 16.6%, B: 27.6%)

----------
system under test: Metabotropic glutamate receptor 5 (Homo sapiens)
run description: Antagonist activity at mGlu5 receptor (unknown origin) expressed in HEK cells assessed as inhibition of glutamate-induced calcium flux at 10 uM by fluorescence based assay
Assay type: functional, cell-based
experimental context: HEK293
measurement label: inhibition (%)

# count of solved cases: 2
Cc1ccnc(Cl)c1NC(=O)c1ccccn1 :: 17.7
O=C(Nc1cc(Cl)cnc1Cl)c1ccccn1 :: 51

1 = Cc1cccc(C(=O)Nc2cccc(C#N)c2)n1
2 = Cc1ccnc(Cl)c1NC(=O)c1cccc(Cl)n1
3 = O=C(Nc1ccc(Cl)cn1)c1ccccn1
Query block: Arrange the 3 compounds by rising inhibition, starting with the smallest. Quick reminder: the answer is the labels in the order asked.
Result block: 2, 3, 1

----------
system under test: Metabotropic glutamate receptor 5 (Homo sapiens, UniProt P41594)
run description: Antagonist activity at mGlu5 receptor (unknown origin) expressed in HEK cells assessed as inhibition of glutamate-induced calcium flux at 1 uM by fluorescence based assay
Type: functional, cell-based
experimental context: HEK293
measurement label: inhibition (%)

Cc1ccnc(Cl)c1NC(=O)c1cccc(Cl)n1 :: 15.7
O=C(Nc1cccc(F)c1)c1nc(Br)cs1 :: 13.7
COc1ccc(NC(=O)c2ccccn2)cn1 :: 14
